Data provenance is the supplement of paper PMC9112550.

# System: Escherichia coli TOP10;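 also: peptides expressed intracellularly from a pBAD plasmid library in pooled LB shake-flask culture, induced with 0.3% L-arabinose, DNA abundance read by NGS, three biological replicates, DESeq2 with apeglm shrinkage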
# Test description: shrunken log2 fold change of peptide-encoding DNA abundance (4.5 h post-induction vs induction); higher = less antimicrobial activity (less host growth inhibition)
# Condition parameters: time post-induction: 4.5 h; library: site-saturation at positions 5, 18, 19, 20
Quick reference: shrunken log2 fold change of the listed items.
Attribute measured: shrunken log2 fold change

In [3]: df
Out[3]:
             item_sequence  recorded_result
0  RRIRPRPPRLPRPRPRPTYTPRP           -0.272
1  RRIRFRPPRLPRPRPRPFDAPRP          -0.0477
2  RRIRERPPRLPRPRPRPCRRPRP           0.0646
3  RRIRRRPPRLPRPRPRPYEVPRP          -0.0692
4  RRIRGRPPRLPRPRPRPCKPPRP            0.108
5  RRIRGRPPRLPRPRPRPMPRPRP             1.03
6  RRIRMRPPRLPRPRPRPMGGPRP            0.131
7  RRIRPRPPRLPRPRPRPREEPRP            0.111
